Molecular target: human TLR8 (Homo sapiens (Human), UniProt Q9NR97)
Sequence (Q9NR97 27-1041): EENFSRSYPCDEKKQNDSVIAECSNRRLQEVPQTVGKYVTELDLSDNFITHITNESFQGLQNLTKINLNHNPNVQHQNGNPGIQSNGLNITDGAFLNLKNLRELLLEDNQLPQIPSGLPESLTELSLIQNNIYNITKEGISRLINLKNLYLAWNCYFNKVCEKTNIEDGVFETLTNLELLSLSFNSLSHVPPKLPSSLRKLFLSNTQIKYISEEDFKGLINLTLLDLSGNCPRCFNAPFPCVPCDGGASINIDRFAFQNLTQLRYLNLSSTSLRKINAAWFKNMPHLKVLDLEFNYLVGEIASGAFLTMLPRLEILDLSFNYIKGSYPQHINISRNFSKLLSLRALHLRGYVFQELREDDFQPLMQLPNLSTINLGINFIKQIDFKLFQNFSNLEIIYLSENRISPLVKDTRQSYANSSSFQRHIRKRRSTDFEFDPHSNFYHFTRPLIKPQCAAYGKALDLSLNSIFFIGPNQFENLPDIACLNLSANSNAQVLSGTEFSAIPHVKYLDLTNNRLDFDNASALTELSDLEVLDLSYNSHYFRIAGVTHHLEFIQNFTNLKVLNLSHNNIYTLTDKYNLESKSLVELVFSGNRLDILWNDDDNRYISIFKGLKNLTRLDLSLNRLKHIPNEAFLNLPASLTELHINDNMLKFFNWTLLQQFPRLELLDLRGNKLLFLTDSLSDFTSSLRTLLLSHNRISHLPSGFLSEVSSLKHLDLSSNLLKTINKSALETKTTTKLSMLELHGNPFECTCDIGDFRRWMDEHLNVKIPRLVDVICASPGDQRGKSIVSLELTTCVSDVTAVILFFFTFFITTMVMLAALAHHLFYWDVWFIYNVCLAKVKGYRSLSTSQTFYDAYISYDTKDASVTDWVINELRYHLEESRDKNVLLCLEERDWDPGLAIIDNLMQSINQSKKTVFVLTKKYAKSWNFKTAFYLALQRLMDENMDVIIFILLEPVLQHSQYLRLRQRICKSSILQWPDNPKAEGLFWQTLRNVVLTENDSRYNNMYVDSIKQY
Test: TLR8 inhibition reporter assay (HEK-Blue SEAP);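 also: SEAP driven by IFN-β minimal promoter carrying NF-κB and AP-1 sites, compounds dosed 0.05 nM to 50 µM for 22 h, inhibition scaled between agonist-plus-DMSO and reference-inhibitor wells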
Settings: read-out: TLR8 IC50; HEK-Blue cells overexpressing human TLR8, R848 15.9 μM stimulation, SEAP reporter
test.readout: IC50 (nM)

Some solved entries appear below for comparison.
Return the recorded IC50 value; entry: CCn1cc(-c2[nH]c3ccc(C4CCC(NCC(=O)N(C)C)CC4)nc3c2C(C)C)c2cccnc21 (stereo not drawn)
11

Return the recorded IC50 value; entry: CC(C)c1c(-c2cn(C)c3ncccc23)[nH]c2ccc(N3CC(N)C3)nc12 [Example 32]
6.9

Return the recorded IC50 value; entry: CNC(=O)CN1CCN(c2ccc3[nH]c(-c4cc(OC)c5ncnn5c4)c(C(C)C)c3n2)CC1
4.6

Return the recorded IC50 value; entry: Cc1c(-c2[nH]c3ccc(N4CC(N(C)C)C4)nc3c2C(C)C)cn2ncnc2c1C
1.6

(1) Cc1c(-c2[nH]c3ccc(N4CCC(NCc5csnn5)CC4)nc3c2C(C)C)cn2ncnc2c1C
(2) Cc1c(-c2[nH]c3ccc(N4CCN(C(=O)CN5CCCC5)CC4)nc3c2C(C)C)cn2ncnc2c1C
For the pair 1 and 2 , which member has the lower IC50 number? To answer, give the label that identifies your chosen option.
2
(2: 0.49 nM, 1: 1.1 nM)
